# Test system: Triticum aestivum
# protocol_notes: Phytotoxicity against Triticum aestivum (wheat) under greenhouse conditions at 1.3 g/a at 1.5-leaf stage measured after 3 weeks by pot test
# Type: organism-based
# measurement_conditions: in vivo, 504 h
parameter: Activity

CC(Oc1ccc(Oc2ncc(Cl)cc2Cl)cc1)C(=O)O (stereo not drawn) ... Toxic
CCCCOC(=O)CNC(=O)C(C)Oc1ccc(Oc2ncc(Cl)cc2Cl)cc1 (stereo not drawn) ... Non-toxic
CC(Oc1ccc(Oc2ncc(C(F)(F)F)cc2Cl)cc1)C(=O)NOCC(=O)O (stereo not drawn) ... Toxic
CNC(=O)CNC(=O)C(C)Oc1ccc(Oc2ncc(Cl)cc2Cl)cc1 (stereo not drawn) ... Non-toxic

Now look at this one.
Problem: Recorded Activity of CNC(=O)C(C)Oc1ccc(Oc2ncc(Cl)cc2Cl)cc1 (stereo not drawn) , please.
Result: Non-toxic
